- MEASURED_ON: hCRTH2 receptor (Homo sapiens (Human), UniProt Q9Y5Y4)
- Sequence (Q9Y5Y4 whole entry): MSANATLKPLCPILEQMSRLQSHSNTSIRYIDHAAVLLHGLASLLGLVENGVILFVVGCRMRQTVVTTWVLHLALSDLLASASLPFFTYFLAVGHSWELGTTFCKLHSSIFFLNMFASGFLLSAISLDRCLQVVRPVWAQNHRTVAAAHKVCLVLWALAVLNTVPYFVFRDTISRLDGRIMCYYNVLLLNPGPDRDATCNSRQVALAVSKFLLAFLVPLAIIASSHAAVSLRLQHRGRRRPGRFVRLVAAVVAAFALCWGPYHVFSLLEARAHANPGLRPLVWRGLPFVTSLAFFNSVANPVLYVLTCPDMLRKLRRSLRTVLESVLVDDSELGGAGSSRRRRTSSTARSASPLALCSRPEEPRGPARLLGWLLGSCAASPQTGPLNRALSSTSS
- PROCEDURE_TEXT: hCRTH2 receptor membranes radioligand displacement assay (3H-PGD2)
- RUN_CONDITIONS: 3H-PGD2 2.5 nM, HEK293-hCRTH2 membranes, Binding-Buffer with 0.1% BSA
- Description: Biological Assays: Preparation of hCRTH2 Receptor Membranes and Radioligand Displacement Assay: First, recombinant HEK293-hCRTH2 cells were detached from culture plates into 5 ml buffer A/plate (Buffer A: 5 mM Tris, 1 mM MgCl2-6H2O pH=7.4) using a rubber policeman. […] Binding assay was performed in a final assay volume of 250 μl. […] Then, 40 μl of Microscint-40 (Packard) was added to each well and the retained radioactivity quantified in a Topcount (Packard).
REPORTED_METRIC: IC50 (nM)
Enter your answer as a number in nM; do not include the unit.

What IC50 value was documented for this compound, "CC(C)N(c1ncc(Cl)cn1)[C@H]1CCc2c(c3cc(F)ccc3n2CC(=O)O)C1" ?
809

What IC50 value was documented for this compound, Cc1csc(N(C)C2CCc3c(c4cc(F)ccc4n3CC(=O)O)C2)n1 (stereo not shown) ?
9.7

What IC50 value was documented for this compound, CN(c1ncc(Cl)cn1)C1CCc2c(c3ccccc3n2CC(=O)O)C1 (stereo not shown) ?
5.1

What IC50 value was documented for this compound, "CN(c1nc2ccccc2s1)[C@H]1CCc2c(c3cc(F)ccc3n2CC(=O)O)C1" ?
8.1

What IC50 value was documented for this compound, "CN(c1nc2cc(F)ccc2s1)[C@H]1CCc2c(c3cc(F)ccc3n2CC(=O)O)C1" ?
3.1

What IC50 value was documented for this compound, "CN(c1ncccn1)[C@H]1CCc2c(c3cc(F)ccc3n2CC(=O)O)C1" ?
9.9

What IC50 value was documented for this compound, "CN(c1ncc2ccccc2n1)[C@H]1CCc2c(c3cc(F)ccc3n2CC(=O)O)C1" ?
12

What IC50 value was documented for this compound, "O=C(O)Cn1c2c(c3cc(F)ccc31)C[C@H](Nc1ncc(Cl)cn1)CC2" ?
13

What IC50 value was documented for this compound, "CN(c1ncc(C(F)(F)F)cn1)[C@H]1CCc2c(c3cc(F)ccc3n2CC(=O)O)C1" ?
2

What IC50 value was documented for this compound, "CN(c1ncc(F)cn1)[C@@H]1CCc2c(c3cc(F)ccc3n2CC(=O)O)C1" ?
42

What IC50 value was documented for this compound, "CN(c1ccc(Cl)cn1)[C@H]1CCc2c(c3cc(F)ccc3n2CC(=O)O)C1" ?
5.2

What IC50 value was documented for this compound, "CN(c1nccc(C(F)(F)F)n1)[C@@H]1CCc2c(c3cc(F)ccc3n2CC(=O)O)C1" ?
67

What IC50 value was documented for this compound, "O=C(O)Cn1c2c(c3cc(F)ccc31)C[C@@H](N(CC(F)F)c1ncc(Cl)cn1)CC2" ?
15

What IC50 value was documented for this compound, "CN(c1nc2cc(F)ccc2o1)[C@H]1CCc2c(c3cc(F)ccc3n2CC(=O)O)C1" ?
4.1

What IC50 value was documented for this compound, "O=C(O)Cn1c2c(c3cc(F)ccc31)C[C@@H](Nc1ncc(Cl)cn1)CC2" ?
4.6

What IC50 value was documented for this compound, "CN(c1ncc(F)cn1)[C@H]1CCc2c(c3cc(F)ccc3n2CC(=O)O)C1" ?
2.5

What IC50 value was documented for this compound, "CN(c1ncc(C2CC2)cn1)[C@H]1CCc2c(c3cc(F)ccc3n2CC(=O)O)C1" ?
2.2

What IC50 value was documented for this compound, CN(c1nc(C(C)(C)C)cs1)C1CCc2c(c3cc(F)ccc3n2CC(=O)O)C1 (stereo not shown) ?
73

What IC50 value was documented for this compound, "CN(c1nccc(C(F)(F)F)n1)[C@H]1CCc2c(c3cc(F)ccc3n2CC(=O)O)C1" ?
12

What IC50 value was documented for this compound, "CN(c1ccc(F)cn1)[C@H]1CCc2c(c3cc(F)ccc3n2CC(=O)O)C1" ?
9.8

What IC50 value was documented for this compound, "CN(c1nc2ccc(F)cc2s1)[C@H]1CCc2c(c3cc(F)ccc3n2CC(=O)O)C1" ?
1.2

What IC50 value was documented for this compound, "Cc1ccnc(N(C)[C@H]2CCc3c(c4cc(F)ccc4n3CC(=O)O)C2)n1" ?
107

What IC50 value was documented for this compound, "Cc1nc(N(C)[C@H]2CCc3c(c4cc(F)ccc4n3CC(=O)O)C2)c2ccccc2n1" ?
55

What IC50 value was documented for this compound, COc1ccc2c(c1)c1c(n2CC(=O)O)CCC(N(C)c2ncc(Cl)cn2)C1 (stereo not shown) ?
4.6

What IC50 value was documented for this compound, CN(c1nc(C(F)(F)F)cs1)C1CCc2c(c3cc(F)ccc3n2CC(=O)O)C1 (stereo not shown) ?
14

What IC50 value was documented for this compound, CN(c1ncc(Cl)cn1)C1CCc2c(c3cc(C(F)(F)F)ccc3n2CC(=O)O)C1 (stereo not shown) ?
3.5

What IC50 value was documented for this compound, "CCCN(c1ncc(Cl)cn1)[C@H]1CCc2c(c3cc(F)ccc3n2CC(=O)O)C1" ?
3.9

What IC50 value was documented for this compound, Cc1ccc2c(c1)c1c(n2CC(=O)O)CCC(N(C)c2ncc(Cl)cn2)C1 (stereo not shown) ?
5.5

What IC50 value was documented for this compound, "CN(c1ncnc2ccccc12)[C@H]1CCc2c(c3cc(F)ccc3n2CC(=O)O)C1" ?
26

What IC50 value was documented for this compound, CN(c1ncc(Cl)cn1)C1CCc2c(c3cc(OC(F)(F)F)ccc3n2CC(=O)O)C1 (stereo not shown) ?
8.8

What IC50 value was documented for this compound, "CN(c1ncc(Cl)cn1)[C@H]1CCc2c(c3cc(F)ccc3n2CC(=O)O)C1" ?
2.7

What IC50 value was documented for this compound, "CN(c1nc2ccc(F)cc2o1)[C@H]1CCc2c(c3cc(F)ccc3n2CC(=O)O)C1" ?
4.6

What IC50 value was documented for this compound, Cc1cc(N(C)C2CCc3c(c4cc(F)ccc4n3CC(=O)O)C2)no1 (stereo not shown) ?
7.4

What IC50 value was documented for this compound, "O=C(O)Cn1c2c(c3cc(F)ccc31)C[C@H](Nc1ncc(C(F)(F)F)cn1)CC2" ?
27
